System: Klebsiella pneumoniae
Experiment: Antibacterial activity against Klebsiella pneumoniae after 24 hrs by two fold serial dilution method
Assay type: functional
Please provide measured MIC for the entries that follow.

For the compound shown here, `C[C@H](NCCC(=O)c1ccc(Cl)cc1Cl)[C@H](O)c1ccccc1.Cl` , give the reported MIC.
> 50 µg/mL

Also `COc1ccc(C(=O)CCN[C@@H](C)[C@H](O)c2ccccc2)cc1.Cl` , if possible.
> 50 µg/mL

Also `COc1ccc(C(=O)CCN[C@H](C)[C@@H](O)c2ccccc2)cc1.Cl` , if possible.
> 50 µg/mL
